Test system: SW-620 colon
Assay: NCI tumour cell line growth inhibition, 48 h
measuredMetric: TGI

Can you look up the measured TGI of O=C(/C=C/c1cccc(Oc2ccccc2)c1)NCc1ccc(C(=O)NCCc2ccccc2)cc1 for me?
> 100 µM

Item COc1ccc(/C(COc2ccc3oc(-c4ccccc4)cc(=O)c3c2)=N\O)cc1 has what recorded TGI?
> 50 µM

Would you mind telling me what TGI value was observed for CN(C)CCNC(=O)c1cccc2cc3c(Cl)cccc3nc12 ?
6.17 µM

Query: TGI; subject: C=C/C=C/[C@@H](O)CC(=C)C[C@H]1OC2[C@H](C)[C@@H](OC(=O)C[C@H]3C[C@H](OC(C)=O)C[C@@]4(C[C@@](C)(O)C[C@H](CC(=C)[C@@H](C)[C@H](OC(C)=O)[C@H](C)C(=O)C[C@@H]5C[C@H](OC)CC6(C[C@@H](O)C[C@H](/C=C\CCC[C@H]7O[C@](O)(C=C[C@H]7C)[C@H]2O)O6)O5)O4)O3)[C@@H]1O
> 25 µM

Bench note: what TGI did COc1ccc(CN2c3ccccc3Sc3ccccc32)c(C(F)(F)F)c1 show?
> 100 µM

Endpoint output: TGI of O=C1C=CC=C/C1=C1/SC(c2ccccc2)=C(O)N1c1ccccc1 . Value?
> 100 µM

What value of TGI has been reported for the following molecule? CC(C)(C)OC(=O)CN1CCNCCN(CC(=O)OC(C)(C)C)CCNCC1
> 100 µM

If you can, please state the reported TGI value of COc1ccc2c(c1)c(-c1nc(-c3c[nH]c4ccncc34)cs1)cn2C .
3.27 µM

Give the measured TGI of O=[N+]([O-])C=C(c1ccc(Cl)cc1)c1ccc(Cl)cc1 .
31 µM

Form field: reported TGI of Cc1c(N=Nc2ccccc2)c(C)n(C2OC(CO)C(O)C(O)C2O)c(=S)c1C#N (stereo not given)
> 100 µM

Which TGI value is on record for CC1=C(c2ccccc2)C(O)(c2ccccc2)C(C)C1=O (stereo not given) ?
> 100 µM

Dear colleague, I am looking for the recorded TGI of the following molecule: Nc1[nH]nc2nc3ccccc3nc12
> 100 µM

Fill in the blank: the reported TGI of N/C(=N\N=C\c1ccc(C(F)(F)F)cc1)NO is ____.
> 100 µM

Returns the measured TGI for the input molecule. Input: Cc1ccccc1NC(=O)c1sc2nc(C)c(C(=O)/C=C/c3ccccc3)cc2c1N
2.45 µM

Can you look up the measured TGI of Cn1c(CO)ccc1-c1ccc(-c2ccc[se]2)[se]1 for me?
77.8 µM

Param item = O=c1ccn(C2OC(CO)C(O)C2F)c(=O)n1Cc1ccccc1 (stereo not given) ; retrieve measured TGI.
> 100 µM

Bench note: what TGI did CCOC(=O)C(Cc1c[nH]c2cc([N+](=O)[O-])ccc12)NS(=O)(=O)c1ccc2ccccc2c1 (stereo not given) show?
44.4 µM

What does the record list as TGI for O=C(N=c1ccc2nc(=O)[nH]n(O)c-2c1)C(F)(F)F ?
> 100 µM

Quick check: TGI of CC1/C(=N\O)CC(c2ccccc2)N(C)C1c1ccccc1 (stereo not given) ?
> 100 µM

Recorded TGI for O=C(O)[C@H](NS(=O)(=O)c1ccc(F)cc1)c1ccccc1 , please?
> 100 µM

Requested read-out: TGI. Entry: Cc1ccc(-c2nc(N/N=C/c3ccc(O)cc3)c3ccccc3n2)cc1
> 100 µM

Could you tell me which TGI is on file for COC(=O)c1ccc(C)cc1CC1Cc2ccc(C)cc2C1=O (stereo not given) ?
> 100 µM

# get_value(readout='TGI', item= CC1=C(/C=C/C(C)=C/C2CC(N(C)C)=CC(=O)O2)C(C)(C)CCC1 (stereo not given) )
31.1 µM

Sample COc1ncc(Nc2ncc([C@@H](C)N3CCN(S(C)(=O)=O)CC3)cc2-c2nc(C)nc(N)n2)cc1F — what was its TGI?
> 100 µM

Quick one: TGI for OC(COC(c1ccccc1)(c1ccccc1)c1ccccc1)C(O)CC1SCCS1 (stereo not given) ?
> 100 µM

Could you tell me which TGI is on file for CNC(=O)c1c(NC(=O)c2ccc(C(C)(C)C)cc2)sc2c(CN(C)C)c(O)ccc12 ?
3.38 µM

Dear colleague, I am looking for the recorded TGI of the following molecule: CC(=O)c1c2c(cc3c1CC1(C3)Cc3cc4c(c(C(C)=O)c3C1)CCC4)CCC2
> 100 µM

Data request, read-out TGI, for C/C=C1\CN(C(=O)OC(C)(C)C)C1C(=O)OC(C)(C)C (stereo not given)
> 100 µM

Fill in the blank: the reported TGI of Cc1cccc2nc3ccccc3c(Nc3ccc(NS(C)(=O)=O)cc3)c12 is ____.
20.3 µM

I am curious: what TGI value has been reported for NCC(O)CNC(=O)c1ccc(-c2ccc(-c3ccc(C(=O)NCC(O)CN)cc3)o2)cc1 (stereo not given) ?
> 100 µM

// query TGI value for entry CCOC(=O)C(=O)CC1=Nc2ccccc2SC(c2cccc(C)c2)C1 (stereo not given)
43.4 µM

Quick one: TGI of O=[N+]([O-])C(/C=N/Nc1ccccc1)/C=N/Nc1ccccc1 ?
> 100 µM

If you can, please state the reported TGI value of CCN(CC)CCCNc1cc(OC)cc2nc3cc(Cl)ccc3nc12 .
11.2 µM

Which TGI reading was recorded for the molecule COC(=O)c1ccc(CN2C(=O)C(Cl)=C(Nc3cccc(Cl)c3C)C2=O)cc1 ?
26.4 µM

I'd like to know its TGI. The molecule in question is OCCN(/N=C\c1ccc2ccccc2c1)C1=NCCN1
55.6 µM

Tell me the measured TGI of S=c1[nH]n2c(CCCCCCCCc3nnc4sc(=S)[nH]n34)nnc2s1 , please.
> 100 µM

Which TGI value belongs to COc1c2c(c3ccccc3c1O)C1C=CC2C1 (stereo not given) ?
34.3 µM

Recorded TGI of O=c1oc2ccccc2cc1-c1cn2c(n1)sc1ccccc12 , please.
> 100 µM

Report TGI for CC1CC/C(=C\c2ccc(F)cc2)C(=O)/C1=C/c1ccc(F)cc1 (stereo not given) please.
87.6 µM

Please look up its TGI: C=C1C(O)C[C@H](OC(C)=O)[C@]2(C)C1C(OC(C)=O)[C@]1(C(C)(C)O)CC(O)C(C)=C1[C@@H](OC(=O)c1ccccc1)C2OC(C)=O (stereo not given in full)
> 10 µM
